Where do these numbers come from? They come from patent US6896895B2.

- Test system: skin and shanks of broilers
- TEST_METHOD_NOTES: Reflectance colorimetry and visual classification of skin and shanks of broilers
- Assay type: in vivo, broiler chickens (Ross 308, Ross 508)
- Set-up: key: −; (+); +; ++ = good color; o = orange
- TEST_CONDITIONS: dry carcasses, average over doses, Table 6
PROPERTY_NAME: Shanks Visual Classification

Reference set, count: 5
CCC(C)COC(=O)C(C)=CC=CC(C)=CC=CC=C(C)C=CC=C(C)C=CC1=C(C)CCCC1(C)C (stereo not drawn) [(7), 2-methyl-butyl beta-apo-8′-carotenoate] : (+)
CCCC(C)COC(=O)C(C)=CC=CC(C)=CC=CC=C(C)C=CC=C(C)C=CC1=C(C)CCCC1(C)C (stereo not drawn) : (+)
CCCOC(=O)C(C)=CC=CC(C)=CC=CC=C(C)C=CC=C(C)C=CC1=C(C)CCCC1(C)C [(2), n-propyl beta-apo-8′-carotenoate] : (+)
CC(C=CC=C(C)C=CC1=C(C)CCCC1(C)C)=CC=CC=C(C)C=CC=C(C)C(=O)OCC(C)C [(4), isobutyl beta-apo-8′-carotenoate] : (+)
CC(C=CC=C(C)C=CC1=C(C)CCCC1(C)C)=CC=CC=C(C)C=CC=C(C)C(=O)OC1CCCC1 [(15), cyclopentyl beta-apo-8′-carotenoate] : ++

Lab note: COC(=O)C(C)=CC=CC(C)=CC=CC=C(C)C=CC=C(C)C=CC1=C(C)CCCC1(C)C [(1), methyl beta-apo-8′-carotenoate] gave Shanks Visual Classification of (+)

* * *

- TEST_METHOD_NOTES: Carotenoid ester content in plasma, back skin and abdominal fat of broilers (HPLC)
- Type: in vivo, broiler chickens (Ross 308, Ross 508)
- TEST_CONDITIONS: average over doses, Table 4
Each entry falls into one class according to its Analytical Content as Equivalent of Ethyl β-apo-8′-carotenoate in % of control Fat; the ranges are 1 (below 40%), 2 (40% to below 50%), 3 (50% or more)

Some solved cases for reference:
CC(C=CC=C(C)C=CC1=C(C)CCCC1(C)C)=CC=CC=C(C)C=CC=C(C)C(=O)OCCC(C)C [(6), isoamyl beta-apo-8′-carotenoate] : 1
CC(C=CC=C(C)C=CC1=C(C)CCCC1(C)C)=CC=CC=C(C)C=CC=C(C)C(=O)OCC(C)(C)C [(8)] : 3

*Q* Which class is correct for the following molecule? CC(C=CC=C(C)C=CC1=C(C)CCCC1(C)C)=CC=CC=C(C)C=CC=C(C)C(=O)OC1CCCCC1 [(16), cyclohexyl beta-apo-8′-carotenoate]
*A* 1

*Q* Which class is correct for the following molecule? CCC(C)COC(=O)C(C)=CC=CC(C)=CC=CC=C(C)C=CC=C(C)C=CC1=C(C)CCCC1(C)C (stereo not drawn) [(7), 2-methyl-butyl beta-apo-8′-carotenoate]
*A* 2

*Q* Which class is correct for the following molecule? CCC(CC)COC(=O)C(C)=CC=CC(C)=CC=CC=C(C)C=CC=C(C)C=CC1=C(C)CCCC1(C)C [(9), 2-ethyl-1-butyl beta-apo-8′-carotenoate]
*A* 2

*Q* Which class is correct for the following molecule? COC(=O)C(C)=CC=CC(C)=CC=CC=C(C)C=CC=C(C)C=CC1=C(C)CCCC1(C)C [(1), methyl beta-apo-8′-carotenoate]
*A* 3

*Q* Which class is correct for the following molecule? CCC(C)OC(=O)C(C)=CC=CC(C)=CC=CC=C(C)C=CC=C(C)C=CC1=C(C)CCCC1(C)C (stereo not drawn) [(5), sec. butyl beta-apo-8′-carotenoate]
*A* 3

* * *

- Tested on: skin and shanks of broilers
- TEST_METHOD_NOTES: Reflectance colorimetry and visual classification of skin and shanks of broilers
- Format: in vivo, broiler chickens (Ross 308, Ross 508)
- Parameters: key: −; (+); +; ++ = good color; o = orange
- TEST_CONDITIONS: dry carcasses, average over doses, Table 6
PROPERTY_NAME: Skin Visual Classification

CCC(CC)COC(=O)C(C)=CC=CC(C)=CC=CC=C(C)C=CC=C(C)C=CC1=C(C)CCCC1(C)C [(9), 2-ethyl-1-butyl beta-apo-8′-carotenoate] : +
CCC(C)COC(=O)C(C)=CC=CC(C)=CC=CC=C(C)C=CC=C(C)C=CC1=C(C)CCCC1(C)C (stereo not drawn) [(7), 2-methyl-butyl beta-apo-8′-carotenoate] : (+)
CC(C=CC=C(C)C=CC1=C(C)CCCC1(C)C)=CC=CC=C(C)C=CC=C(C)C(=O)OCC(C)C [(4), isobutyl beta-apo-8′-carotenoate] : (+)
CC(C=CC=C(C)C=CC1=C(C)CCCC1(C)C)=CC=CC=C(C)C=CC=C(C)C(=O)OCCC(C)C [(6), isoamyl beta-apo-8′-carotenoate] : (+)
CC(C=CC=C(C)C=CC1=C(C)CCCC1(C)C)=CC=CC=C(C)C=CC=C(C)C(=O)OC1CCCCC1 [(16), cyclohexyl beta-apo-8′-carotenoate] : +

Now consider the entry below.
Record CCC(C)OC(=O)C(C)=CC=CC(C)=CC=CC=C(C)C=CC=C(C)C=CC1=C(C)CCCC1(C)C (stereo not drawn) [(5), sec. butyl beta-apo-8′-carotenoate] / skin and shanks of broilers, Skin Visual Classification recorded as +

* * *

- TEST_METHOD_NOTES: Carotenoid ester content and deposition rate in egg yolk of laying hens (HPLC)
- Assay type: in vivo, laying hens (ISA Brown)
- TEST_CONDITIONS: egg yolk, trial H-25/99, 5.0 mg/kg feed, Table 8
Please provide measured Ethyl β-apo-8′-carotenoate Equivalents % of Controls for the entries that follow.
One number for each entry, in %.

Reference set, count: 5
CC(C=CC=C(C)C=CC1=C(C)CCCC1(C)C)=CC=CC=C(C)C=CC=C(C)C(=O)OC1CCCCC1 [(16), cyclohexyl beta-apo-8′-carotenoate] : 82
CCC(C)COC(=O)C(C)=CC=CC(C)=CC=CC=C(C)C=CC=C(C)C=CC1=C(C)CCCC1(C)C (stereo not drawn) [(7), 2-methyl-butyl beta-apo-8′-carotenoate] : 86
CCCC(C)COC(=O)C(C)=CC=CC(C)=CC=CC=C(C)C=CC=C(C)C=CC1=C(C)CCCC1(C)C (stereo not drawn) : 96
CCC(CC)COC(=O)C(C)=CC=CC(C)=CC=CC=C(C)C=CC=C(C)C=CC1=C(C)CCCC1(C)C [(9), 2-ethyl-1-butyl beta-apo-8′-carotenoate] : 77
CC(C=CC=C(C)C=CC1=C(C)CCCC1(C)C)=CC=CC=C(C)C=CC=C(C)C(=O)OC(C)CC(C)C (stereo not drawn) : 79

Lab note: CC(C=CC=C(C)C=CC1=C(C)CCCC1(C)C)=CC=CC=C(C)C=CC=C(C)C(=O)OCC(C)(C)C gave Ethyl β-apo-8′-carotenoate Equivalents % of Controls of 81

* * *

- TEST_METHOD_NOTES: Carotenoid ester content and deposition rate in egg yolk of laying hens (HPLC)
- Type: in vivo, laying hens (ISA Brown)
- TEST_CONDITIONS: egg yolk, trial H-25/99, 5.0 mg/kg feed, Table 8
Tag: yes (1) if measured Deposition Rate Target Values % of Controls is not below 90%, no (0) if it is.

CCC(CC)COC(=O)C(C)=CC=CC(C)=CC=CC=C(C)C=CC=C(C)C=CC1=C(C)CCCC1(C)C [(9), 2-ethyl-1-butyl beta-apo-8′-carotenoate] : no (0)
CCC(C)COC(=O)C(C)=CC=CC(C)=CC=CC=C(C)C=CC=C(C)C=CC1=C(C)CCCC1(C)C (stereo not drawn) [(7), 2-methyl-butyl beta-apo-8′-carotenoate] : yes (1)
CCCC(C)COC(=O)C(C)=CC=CC(C)=CC=CC=C(C)C=CC=C(C)C=CC1=C(C)CCCC1(C)C (stereo not drawn) : yes (1)

*Q* Please tell me: is the compound CC(C=CC=C(C)C=CC1=C(C)CCCC1(C)C)=CC=CC=C(C)C=CC=C(C)C(=O)OC1CCCCC1 [(16), cyclohexyl beta-apo-8′-carotenoate] at or over 90% in terms of Deposition Rate Target Values % of Controls?
*A* yes (1)

* * *

- Tested on: skin and shanks of broilers
- TEST_METHOD_NOTES: Reflectance colorimetry and visual classification of skin and shanks of broilers
- Format: in vivo, broiler chickens (Ross 308, Ross 508)
- Parameters: key: −; (+); +; ++ = good color; o = orange
- TEST_CONDITIONS: dry carcasses, average over doses, Table 6
PROPERTY_NAME: Shanks Visual Classification

CC(C=CC=C(C)C=CC1=C(C)CCCC1(C)C)=CC=CC=C(C)C=CC=C(C)C(=O)OC1CCCCC1 [(16), cyclohexyl beta-apo-8′-carotenoate] : (+)
CC(C=CC=C(C)C=CC1=C(C)CCCC1(C)C)=CC=CC=C(C)C=CC=C(C)C(=O)OCC(C)(C)C [(8)] : (+)
CC(C=CC=C(C)C=CC1=C(C)CCCC1(C)C)=CC=CC=C(C)C=CC=C(C)C(=O)OC(C)CC(C)C (stereo not drawn) [(12)] : +
CCC(C)OC(=O)C(C)=CC=CC(C)=CC=CC=C(C)C=CC=C(C)C=CC1=C(C)CCCC1(C)C (stereo not drawn) [(5), sec. butyl beta-apo-8′-carotenoate] : +
CCC(CC)COC(=O)C(C)=CC=CC(C)=CC=CC=C(C)C=CC=C(C)C=CC1=C(C)CCCC1(C)C [(9), 2-ethyl-1-butyl beta-apo-8′-carotenoate] : (+)

Lab note: CC(C=CC=C(C)C=CC1=C(C)CCCC1(C)C)=CC=CC=C(C)C=CC=C(C)C(=O)OCCC(C)C [(6), isoamyl beta-apo-8′-carotenoate] gave Shanks Visual Classification of (+)
